Sourced from patent US5712367A

# METHOD: Solubility of N-tert-butyloxycarbonylpentaglycine esters (CH3)3COCO(NHCH2CO)5OR in anisole, CH2Cl2 and H2O
# Format: physicochemical
# RUN_CONDITIONS: solvent H2O
Recorded Solubility in g/100 cm^3 H2 O for the following molecules
MEASURE: Solubility in g/100 cm^3 H2 O (g/100 cm^3)

- MOLECULE: "CC(C)(C)OC(=O)NCC(=O)NCC(=O)NCC(=O)NCC(=O)NCC(=O)OCc1cccc(C(=O)OCc2ccc(-c3ccccc3)cc2)c1 [Example R1]"
  MEASURED_RESULT: 0.0016
- MOLECULE: "CC(C)(C)OC(=O)NCC(=O)NCC(=O)NCC(=O)NCC(=O)NCC(=O)OCc1ccccc1 [benzyl]"
  MEASURED_RESULT: 0.017
- MOLECULE: "COC(=O)CNC(=O)CNC(=O)CNC(=O)CNC(=O)CNC(=O)OC(C)(C)C [CH3]"
  MEASURED_RESULT: 0.50
- MOLECULE: "CC(C)(C)OC(=O)NCC(=O)NCC(=O)NCC(=O)NCC(=O)NCC(=O)OCc1cccc(C(=O)OCc2cccc(Oc3ccccc3)c2)c1 [Example R2]"
  MEASURED_RESULT: 0.0008

###

# METHOD: Solubility of N-tert-butyloxycarbonylpentaglycine esters (CH3)3COCO(NHCH2CO)5OR in anisole, CH2Cl2 and H2O
# Assay type: physicochemical
# RUN_CONDITIONS: solvent CH2Cl2
MEASURE: Solubility in g/100 cm^3 CH2 Cl2 (g/100 cm^3)

- SUBSTANCE_SMILES: "CC(C)(C)OC(=O)NCC(=O)NCC(=O)NCC(=O)NCC(=O)NCC(=O)OCc1cccc(C(=O)OCc2ccc(-c3ccccc3)cc2)c1"
  RESULT_MODIFIER: ">"
  MEASURED_RESULT: 10
- SUBSTANCE_SMILES: "COC(=O)CNC(=O)CNC(=O)CNC(=O)CNC(=O)CNC(=O)OC(C)(C)C"
  RESULT_MODIFIER: "="
  MEASURED_RESULT: 0.33
- SUBSTANCE_SMILES: "CC(C)(C)OC(=O)NCC(=O)NCC(=O)NCC(=O)NCC(=O)NCC(=O)OCc1cccc(C(=O)OCc2cccc(Oc3ccccc3)c2)c1"
  RESULT_MODIFIER: ">"
  MEASURED_RESULT: 10
- SUBSTANCE_SMILES: "CC(C)(C)OC(=O)NCC(=O)NCC(=O)NCC(=O)NCC(=O)NCC(=O)OCc1ccccc1"
  RESULT_MODIFIER: "="
  MEASURED_RESULT: 0.070

###

# METHOD: Solubility of N-tert-butyloxycarbonylpentaglycine esters (CH3)3COCO(NHCH2CO)5OR in anisole, CH2Cl2 and H2O
# Format: physicochemical
# RUN_CONDITIONS: solvent anisole

- COMPOUND: "CC(C)(C)OC(=O)NCC(=O)NCC(=O)NCC(=O)NCC(=O)NCC(=O)OCc1cccc(C(=O)OCc2cccc(Oc3ccccc3)c2)c1 [Example R2]"
  MEASUREMENT_UNITS: "g/100 cm^3"
  Solubility in g/100 cm^3 anisole: 5
- COMPOUND: "CC(C)(C)OC(=O)NCC(=O)NCC(=O)NCC(=O)NCC(=O)NCC(=O)OCc1cccc(C(=O)OCc2ccc(-c3ccccc3)cc2)c1 [Example R1]"
  MEASUREMENT_UNITS: "g/100 cm^3"
  Solubility in g/100 cm^3 anisole: 5
